test system: Plasmodium falciparum; experiment: Antimalarial activity against Plasmodium falciparum 3D7 assessed as inhibition of parasite growth; assay type: functional, organism-based
Give EC50 for every item shown.
Quick note: give the figure in µg/mL, leave out the unit.

Dear colleague, I am looking for the recorded EC50 of the following compound: O=C(Nc1cc(Cl)cc(Cl)c1)Nc1cc(C(F)(F)F)ccc1Oc1ccc(Cl)cc1Cl
0.047

Dear colleague, I am looking for the recorded EC50 of the following compound: O=C(Nc1cccc(Cc2ccccc2)c1)Nc1cc(C(F)(F)F)ccc1Oc1ccc(Cl)cc1Cl
0.3

Dear colleague, I am looking for the recorded EC50 of the following compound: O=C(Nc1cccnc1)Nc1cc(C(F)(F)F)ccc1Oc1ccc(Cl)cc1Cl
0.6

Dear colleague, I am looking for the recorded EC50 of the following compound: N#Cc1cccc(NC(=O)Nc2cc(C(F)(F)F)ccc2Oc2ccc(Cl)cc2Cl)c1
0.14

Dear colleague, I am looking for the recorded EC50 of the following compound: O=C(Nc1cc(C(F)(F)F)ccc1Oc1ccc(Cl)cc1Cl)NC1c2ccccc2-c2ccccc21
0.8
